- Target under test: Cyclin-dependent kinase 2/cyclin A (Homo sapiens)
- Assay protocol: Inhibition of recombinant Cdk2/cyclin A using RbING as substrate after 2 hrs by luminescence assay
Readout kind: pIC50
Please treat pIC50 as minus the base-10 logarithm of the molar concentration.

- Smiles: "COc1ccc2cc1OCC/C=C/CN(C)Cc1cccc(c1)Nc1nccc-2n1"
  Numeric readout: 5.64

Which pIC50 value belongs to CN1C/C=C/CCOc2cccc(c2)-c2ccnc(n2)Nc2ccc(N3CCOCC3)c(c2)C1 ?
7.13

And C1=C/CN(Cc2ccccn2)Cc2cccc(c2)Nc2nccc(n2)-c2cccc(c2)OCC/1 ?
6.32

And CN1C/C=C/CC(=O)Nc2cccc(c2)-c2ccnc(n2)Nc2cccc(c2)C1 ?
5.34

And CCS(=O)(=O)CCOc1ccc2cc1CN(C)C/C=C/CCOc1cccc(c1)-c1ccnc(n1)N2 ?
6.77

And CN1C/C=C/CCOc2cccc(c2)-c2ccnc(n2)Nc2cc(cc(NC(=O)C(F)(F)F)c2)C1 ?
8.10

And CN1C/C=C/COCc2cccc(c2)-c2ccnc(n2)Nc2cccc(c2)C1 ?
6.18

And OCCN1C/C=C/CCOc2cccc(c2)-c2ccnc(n2)Nc2cccc(c2)C1 ?
7.00

And CN1C/C=C/CCOc2cc(F)cc(c2)-c2ccnc(n2)Nc2cccc(c2)C1 ?
8.05

And CCN(CC)CCOc1ccc2cc1CN(C)C/C=C/CCOc1cccc(c1)-c1ccnc(n1)N2 ?
6.52

And COCCOc1ccc2cc1CN(C)C/C=C/CCOc1cccc(c1)-c1ccnc(n1)N2 ?
6.96

And CN1C/C=C/CCOc2cccc(c2)-c2ccnc(n2)Nc2cc(cc(NC(=O)N3CCOCC3)c2)C1 ?
7.06
